target: CDK9/cyclin T1 (Homo sapiens, UniProt P50750); assay: Inhibition of CDK9/cyclin T1 (unknown origin) incubated for 2 hrs in presence of ATP by FRET based LANCE assay
Sequence (O60563 whole entry): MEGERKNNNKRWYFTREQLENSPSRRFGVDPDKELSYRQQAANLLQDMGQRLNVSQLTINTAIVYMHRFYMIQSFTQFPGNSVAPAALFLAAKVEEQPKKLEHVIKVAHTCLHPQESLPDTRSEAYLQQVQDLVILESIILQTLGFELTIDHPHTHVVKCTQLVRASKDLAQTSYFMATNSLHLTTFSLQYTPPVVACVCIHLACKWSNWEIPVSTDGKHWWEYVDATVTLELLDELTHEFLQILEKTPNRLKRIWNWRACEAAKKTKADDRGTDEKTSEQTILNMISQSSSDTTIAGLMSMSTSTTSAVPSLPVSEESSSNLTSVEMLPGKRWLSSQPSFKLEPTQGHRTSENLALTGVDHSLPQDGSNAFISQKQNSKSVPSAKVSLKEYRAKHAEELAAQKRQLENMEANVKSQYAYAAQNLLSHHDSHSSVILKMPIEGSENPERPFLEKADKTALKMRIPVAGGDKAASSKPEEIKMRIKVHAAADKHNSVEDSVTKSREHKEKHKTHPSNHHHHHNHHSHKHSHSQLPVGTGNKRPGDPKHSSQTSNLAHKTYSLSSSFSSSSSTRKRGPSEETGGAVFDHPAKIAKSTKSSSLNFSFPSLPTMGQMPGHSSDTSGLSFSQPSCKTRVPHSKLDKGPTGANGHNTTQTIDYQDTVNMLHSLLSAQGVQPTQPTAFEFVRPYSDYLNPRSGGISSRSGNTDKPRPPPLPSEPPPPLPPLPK
Sequence (P50750 whole entry): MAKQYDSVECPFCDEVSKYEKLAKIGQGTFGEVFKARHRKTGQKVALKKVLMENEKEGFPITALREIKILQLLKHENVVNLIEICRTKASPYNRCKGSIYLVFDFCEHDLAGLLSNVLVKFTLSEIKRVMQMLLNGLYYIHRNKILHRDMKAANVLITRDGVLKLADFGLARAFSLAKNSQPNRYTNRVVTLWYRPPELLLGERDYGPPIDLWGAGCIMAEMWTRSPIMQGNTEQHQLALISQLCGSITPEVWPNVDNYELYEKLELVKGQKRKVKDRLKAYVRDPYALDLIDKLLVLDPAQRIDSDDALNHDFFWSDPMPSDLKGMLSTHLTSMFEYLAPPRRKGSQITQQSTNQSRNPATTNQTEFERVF
quantity_measured: IC50 (nM)
Just the number please, in nM, no unit attached.

Example cases with answers are listed next.
compound | IC50 / nM
Cc1n[nH]c2ccc(-c3cncc(N[C@H](CO)c4ccccc4)n3)cc12 | 8770
Cc1n[nH]c2ccc(-c3cncc(NC(CO)c4ccc(F)cc4)n3)cc12 (racemic) | 50.3
Cc1n[nH]c2ccc(-c3cncc(NC(CO)c4ccccc4)n3)cc12 (racemic) | 14.2
Cc1cccc(C(CO)Nc2cncc(-c3ccc4[nH]nc(C)c4c3)n2)c1 (racemic) | 153

We now examine a further compound.
Enquiry: Fill blank: measured IC50 of the compound Cc1n[nH]c2ncc(-c3cc(N[C@@H](CO)c4ccccc4)cnc3Cl)cc12 is ____.
Return: 20.7

* * *

assay: Tmax in ICR mouse at 20 mg/kg, po measured up to 24 hrs; format: ADME, organism-based; conditions: in vivo
quantity_measured: Tmax (min)
Just the number please, in min, no unit attached.

Enquiry: Fill blank: measured Tmax of the molecule Cc1n[nH]c2ccc(-c3cc(N[C@@H](CO)c4ccccc4)cnc3Cl)cc12 is ____.
Return: 4.98

* * *

experiment: MRT in ICR mouse at 2 mg/kg, iv measured up to 24 hrs; assay type: ADME, organism-based; conditions: in vivo
quantity_measured: MRT (min)
Just the number please, in min, no unit attached.

Enquiry: Fill blank: measured MRT of the molecule Cc1n[nH]c2ccc(-c3cc(N[C@@H](CO)c4ccccc4)cnc3Cl)cc12 is ____.
Return: 43.8

* * *

target: UniProt:P07949
Sequence (P07949 whole entry): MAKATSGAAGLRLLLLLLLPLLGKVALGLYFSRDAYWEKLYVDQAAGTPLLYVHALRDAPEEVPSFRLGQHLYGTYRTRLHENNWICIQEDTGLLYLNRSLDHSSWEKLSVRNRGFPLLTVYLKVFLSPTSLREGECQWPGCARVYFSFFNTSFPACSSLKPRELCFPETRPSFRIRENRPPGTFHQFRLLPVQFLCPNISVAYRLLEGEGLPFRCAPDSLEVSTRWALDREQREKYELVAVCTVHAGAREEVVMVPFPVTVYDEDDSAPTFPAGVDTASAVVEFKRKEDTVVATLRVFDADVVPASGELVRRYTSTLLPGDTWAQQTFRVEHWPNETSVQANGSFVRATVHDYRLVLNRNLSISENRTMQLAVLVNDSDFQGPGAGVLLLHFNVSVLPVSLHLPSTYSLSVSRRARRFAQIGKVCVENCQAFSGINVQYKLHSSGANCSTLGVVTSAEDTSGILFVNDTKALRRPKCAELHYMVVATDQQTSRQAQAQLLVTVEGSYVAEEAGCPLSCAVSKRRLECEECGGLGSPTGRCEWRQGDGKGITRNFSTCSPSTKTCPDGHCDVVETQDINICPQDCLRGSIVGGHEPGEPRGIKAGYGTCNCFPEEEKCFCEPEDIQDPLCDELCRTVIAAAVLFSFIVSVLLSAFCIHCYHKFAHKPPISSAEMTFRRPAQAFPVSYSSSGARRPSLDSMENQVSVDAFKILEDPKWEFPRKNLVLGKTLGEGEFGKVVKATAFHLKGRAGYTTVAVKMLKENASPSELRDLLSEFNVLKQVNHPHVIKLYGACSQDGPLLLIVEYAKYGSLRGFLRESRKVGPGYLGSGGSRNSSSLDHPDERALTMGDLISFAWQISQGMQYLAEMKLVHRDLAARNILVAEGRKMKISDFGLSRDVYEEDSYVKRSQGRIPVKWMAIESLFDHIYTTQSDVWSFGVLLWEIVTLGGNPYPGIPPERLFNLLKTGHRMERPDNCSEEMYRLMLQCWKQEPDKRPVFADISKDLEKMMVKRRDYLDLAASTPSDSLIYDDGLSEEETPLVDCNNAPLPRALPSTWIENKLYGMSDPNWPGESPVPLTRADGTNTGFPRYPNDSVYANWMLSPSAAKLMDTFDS
pIC50: −log10 of the molar value.
quantity_measured: pIC50

Enquiry: Fill blank: measured pIC50 of the compound Cc1n[nH]c2ccc(-c3cc(N[C@@H](CO)c4ccccc4)cnc3Cl)cc12 is ____.
Return: < 6.00

* * *

assay: Observed AUC infinity in ICR mouse at 20 mg/kg, po measured up to 24 hrs; type: ADME, organism-based; set-up: route oral, dose 20 mg/kg, time <=24; conditions: in vivo
quantity_measured: AUC(0-inf) (ng·h/mL)
Just the number please, in ng·h/mL, no unit attached.

Enquiry: Fill blank: measured AUC(0-inf) of the compound Cc1n[nH]c2ccc(-c3cc(N[C@@H](CO)c4ccccc4)cnc3Cl)cc12 is ____.
Return: 1880

* * *

target: Insulin-like growth factor 1 receptor (Homo sapiens)
Sequence (P08069 31-736 limits assumed): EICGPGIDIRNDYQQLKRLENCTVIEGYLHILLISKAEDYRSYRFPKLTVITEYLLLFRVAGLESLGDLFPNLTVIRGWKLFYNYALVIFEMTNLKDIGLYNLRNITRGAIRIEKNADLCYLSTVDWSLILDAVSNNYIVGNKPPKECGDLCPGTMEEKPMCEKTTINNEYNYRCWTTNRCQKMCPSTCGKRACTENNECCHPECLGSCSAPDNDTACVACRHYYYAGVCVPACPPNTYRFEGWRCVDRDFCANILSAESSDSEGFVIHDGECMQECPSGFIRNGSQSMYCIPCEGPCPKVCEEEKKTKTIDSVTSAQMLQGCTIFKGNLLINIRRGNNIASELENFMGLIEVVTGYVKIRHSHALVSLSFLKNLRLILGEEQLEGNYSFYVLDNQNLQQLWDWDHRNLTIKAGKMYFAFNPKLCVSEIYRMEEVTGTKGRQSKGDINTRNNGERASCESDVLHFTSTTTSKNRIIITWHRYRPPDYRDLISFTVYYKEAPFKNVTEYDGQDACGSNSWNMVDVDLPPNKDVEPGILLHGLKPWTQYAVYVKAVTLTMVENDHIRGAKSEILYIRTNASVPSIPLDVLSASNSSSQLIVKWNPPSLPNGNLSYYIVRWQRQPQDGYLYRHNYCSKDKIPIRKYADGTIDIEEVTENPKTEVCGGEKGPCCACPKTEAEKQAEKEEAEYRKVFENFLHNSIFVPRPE
Sequence (P08069 741-1367 limits assumed): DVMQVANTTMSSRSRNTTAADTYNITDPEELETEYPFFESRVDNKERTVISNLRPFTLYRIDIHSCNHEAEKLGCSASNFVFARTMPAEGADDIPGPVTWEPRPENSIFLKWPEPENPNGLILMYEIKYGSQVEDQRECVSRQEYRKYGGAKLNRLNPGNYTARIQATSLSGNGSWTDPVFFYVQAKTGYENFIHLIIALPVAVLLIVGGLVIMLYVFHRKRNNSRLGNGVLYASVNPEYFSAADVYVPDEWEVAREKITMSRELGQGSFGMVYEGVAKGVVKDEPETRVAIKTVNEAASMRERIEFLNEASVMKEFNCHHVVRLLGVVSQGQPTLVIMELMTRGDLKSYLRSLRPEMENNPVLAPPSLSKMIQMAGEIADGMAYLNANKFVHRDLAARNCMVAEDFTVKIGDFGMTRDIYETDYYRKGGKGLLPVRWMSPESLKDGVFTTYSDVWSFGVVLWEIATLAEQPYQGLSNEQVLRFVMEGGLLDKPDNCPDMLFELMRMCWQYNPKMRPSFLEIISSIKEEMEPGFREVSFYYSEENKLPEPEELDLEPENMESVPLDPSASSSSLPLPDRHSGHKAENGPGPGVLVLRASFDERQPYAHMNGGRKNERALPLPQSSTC
quantity_measured: IC50

Enquiry: Quick check: IC50 on Insulin-like growth factor 1 receptor (Homo sapiens), item Cc1n[nH]c2ccc(-c3cc(N[C@@H](CO)c4ccccc4)cnc3Cl)cc12 ?
Return: > 1000 nM

* * *

experiment: AUClast in ICR mouse at 20 mg/kg, po measured up to 24 hrs; format: ADME, organism-based; design: route oral, dose 20 mg/kg, time <=24; settings: in vivo
quantity_measured: AUC(0-t) at 24 h
Just so you know, I need the unit written after the number.

Enquiry: Fill blank: measured AUC(0-t) at 24 h of the molecule Cc1n[nH]c2ccc(-c3cc(N[C@@H](CO)c4ccccc4)cnc3Cl)cc12 is ____.
Return: 1760 ng·h/mL

* * *

tested on: TMD8; assay: Antiproliferative activity against human TMD8 cells assessed as reduction in cell proliferation measured after 3 to 7 days by MTS assay; type: functional, cell-based
IC50 overview
Just the number please, in nM, no unit attached.

line_notation | IC50, nM
Cc1n[nH]c2ccc(-c3cc(N[C@@H](CO)c4ccccc4)cnc3Cl)cc12 | 46

Enquiry: Fill blank: measured IC50 of the compound COC[C@H](C)N[C@H]1CC[C@H](Nc2cc(-c3cccc(NCC4(C#N)CCOCC4)n3)c(Cl)cn2)CC1 is ____.
Return: 15

* * *

test system: JeKo-1; assay: Antiproliferative activity against human JeKo-1 cells assessed as reduction in cell proliferation measured after 3 to 7 days by MTS assay; type: functional, cell-based
IC50 overview
Just the number please, in µM, no unit attached.

line_notation | tested_target | IC50 (µM)
COC[C@H](C)N[C@H]1CC[C@H](Nc2cc(-c3cccc(NCC4(C#N)CCOCC4)n3)c(Cl)cn2)CC1 | JeKo-1 | 0.01

Enquiry: Fill blank: measured IC50 of the compound Cc1n[nH]c2ccc(-c3cc(N[C@@H](CO)c4ccccc4)cnc3Cl)cc12 is ____.
Return: 0.046

* * *

assay: Oral bioavailability in ICR mouse at 20 mg/kg measured up to 24 hrs; assay type: ADME, organism-based; settings: in vivo
quantity_measured: bioavailability (%)
Just the number please, in %, no unit attached.

Enquiry: Fill blank: measured bioavailability of the compound Cc1n[nH]c2ccc(-c3cc(N[C@@H](CO)c4ccccc4)cnc3Cl)cc12 is ____.
Return: 33.7

* * *

target: Vascular endothelial growth factor receptor 2 (Homo sapiens, UniProt P35968)
Sequence (P35968 whole entry): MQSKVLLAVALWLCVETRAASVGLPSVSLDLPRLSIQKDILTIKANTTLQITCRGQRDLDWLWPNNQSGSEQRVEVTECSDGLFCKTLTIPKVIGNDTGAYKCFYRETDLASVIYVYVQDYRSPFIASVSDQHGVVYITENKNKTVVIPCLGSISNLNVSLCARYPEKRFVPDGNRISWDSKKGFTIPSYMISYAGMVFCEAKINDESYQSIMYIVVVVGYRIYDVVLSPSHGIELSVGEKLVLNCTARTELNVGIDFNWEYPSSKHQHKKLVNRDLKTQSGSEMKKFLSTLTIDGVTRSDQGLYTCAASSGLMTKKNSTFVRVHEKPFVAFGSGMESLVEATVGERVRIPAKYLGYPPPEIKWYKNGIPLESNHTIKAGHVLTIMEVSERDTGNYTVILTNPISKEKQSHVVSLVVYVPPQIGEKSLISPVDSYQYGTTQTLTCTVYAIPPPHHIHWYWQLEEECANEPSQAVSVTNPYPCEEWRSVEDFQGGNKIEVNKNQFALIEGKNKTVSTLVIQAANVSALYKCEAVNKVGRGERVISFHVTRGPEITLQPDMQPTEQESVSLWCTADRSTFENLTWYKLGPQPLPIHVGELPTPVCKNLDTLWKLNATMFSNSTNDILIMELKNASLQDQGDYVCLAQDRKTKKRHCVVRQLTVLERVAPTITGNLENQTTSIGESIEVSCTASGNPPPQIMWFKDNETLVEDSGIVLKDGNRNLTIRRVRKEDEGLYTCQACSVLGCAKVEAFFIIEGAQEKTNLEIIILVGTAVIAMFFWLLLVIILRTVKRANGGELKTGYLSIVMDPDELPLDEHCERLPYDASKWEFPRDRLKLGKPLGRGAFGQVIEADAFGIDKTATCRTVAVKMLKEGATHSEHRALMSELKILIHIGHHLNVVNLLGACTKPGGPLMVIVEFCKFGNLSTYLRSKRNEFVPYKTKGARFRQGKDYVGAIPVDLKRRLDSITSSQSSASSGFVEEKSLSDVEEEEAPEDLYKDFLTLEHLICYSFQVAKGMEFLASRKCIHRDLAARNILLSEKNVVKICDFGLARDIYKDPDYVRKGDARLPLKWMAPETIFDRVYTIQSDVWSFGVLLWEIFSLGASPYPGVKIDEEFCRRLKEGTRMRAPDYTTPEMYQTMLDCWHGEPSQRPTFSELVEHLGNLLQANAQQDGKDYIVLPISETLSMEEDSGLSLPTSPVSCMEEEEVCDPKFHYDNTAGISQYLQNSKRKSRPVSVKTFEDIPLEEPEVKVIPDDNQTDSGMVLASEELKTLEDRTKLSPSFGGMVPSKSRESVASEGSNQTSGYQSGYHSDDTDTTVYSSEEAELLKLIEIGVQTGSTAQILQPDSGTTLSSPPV
pIC50: −log10 of the molar value.
quantity_measured: pIC50

Enquiry: Fill blank: measured pIC50 of the compound Cc1n[nH]c2ccc(-c3cc(N[C@@H](CO)c4ccccc4)cnc3Cl)cc12 is ____.
Return: < 6.00

* * *

test: Antiproliferative activity against human MINO cells assessed as reduction in cell proliferation measured after 3 to 7 days by MTS assay; type: functional, cell-based
quantity_measured: pIC50
Scale explanation: pIC50 corresponds to minus log10 of a concentration expressed in moles per litre.

line_notation | assay_result
COC[C@H](C)N[C@H]1CC[C@H](Nc2cc(-c3cccc(NCC4(C#N)CCOCC4)n3)c(Cl)cn2)CC1 | 8.28

We now examine a further compound.
Enquiry: Fill blank: measured pIC50 of the compound Cc1n[nH]c2ccc(-c3cc(N[C@@H](CO)c4ccccc4)cnc3Cl)cc12 is ____.
Return: 8.08

* * *

Reported pIC50 for target or system Cyclin-dependent kinase 7 (Homo sapiens), by entry.
pIC50: −log10 of the molar value.

molecule | pIC50
Cc1n[nH]c2ncc(-c3cc(N[C@@H](CO)c4ccccc4)cnc3Cl)cc12 | < 6.00
Cc1n[nH]c2ccc(-c3cncc(NC(CO)c4ccccc4)n3)cc12 (racemic) | < 6.00

We now examine a further molecule.
Enquiry: Quick check: pIC50 on Cyclin-dependent kinase 7 (Homo sapiens), item Cc1n[nH]c2ccc(-c3cncc(N[C@@H](CO)c4ccccc4)n3)cc12 ?
Return: < 6.00
